Target: T1, human IL-17A homodimer, bacterially expressed construct (residues 40-155 with GSEDS spacer) (human, UniProt Q16552 40-155)
T1 chain: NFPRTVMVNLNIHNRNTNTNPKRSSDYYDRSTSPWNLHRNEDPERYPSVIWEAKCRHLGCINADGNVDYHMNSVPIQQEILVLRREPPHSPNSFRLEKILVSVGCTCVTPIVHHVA
Assay: BLI, biotinylated VHH immobilized on streptavidin sensors, IL-17 as analyte (10, 20, 40 nM), mass transport fit; apparent value, avidity possible;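 further: wavelength shift (nm) signal, 800 s association then 800 s dissociation, reference from parallel sensors without VHH, avidity from immobilized VHH may lower apparent off-rates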
pKd: −log10 of the molar value.
Please go through the items and note down their pKd.

## Task Give the value of pKd reported for the following: Re42H11 with C-terminal Avi-Biotin-tag, biotinylated (VHH, biotin on the C-terminal Avi-tag (BirA), not shown: C-terminal Avi-Biotin-tag) VHH: QVQLVESGGGLVQAGGSLRLSCAASGLTASSYAMGWFRQAPGKEREFVAAISWISGGTKYADSVKGRFTMSRDNAKKQVYLEMNSLKPEDTAVYYCNDMPYGLDTRMDEYAYWGQGTQVTVSS
## Result ≥ 11.00

## Task Give the value of pKd reported for the following: Bm18F11 with C-terminal Avi-Biotin-tag, biotinylated (VHH, biotin on the C-terminal Avi-tag (BirA), not shown: C-terminal Avi-Biotin-tag) VHH: QVQLVESGGDLVQAGGSLRLSCAASGLTGSSYAMGWFRQAPGKEREFVAAISWISGDTKYTDSVKGRFTMSRDNAKKQVYLEMNSLKPEDTAVYYCNDMPYGLDTRMDEYVYWGQGTQVTVSS
## Result ≥ 11.00

## Task Give the value of pKd reported for the following: Bm18B05 with C-terminal Avi-Biotin-tag, biotinylated (VHH, biotin on the C-terminal Avi-tag (BirA), not shown: C-terminal Avi-Biotin-tag) VHH: QVQLVESGGGLVQPGGSLRLSCAVSGRTFSSYAMGWFRRPPGKEREFVAAISWSGGDTKYADFVTDRFTISRDDAKSTVYLQMNSLKPEDTAVYYCNDMPYGLDTRMDEYEYWGQGTQVTVSS
## Result ≥ 11.00
